ASSAY_INFO: total protein half-life in vivo (active degradation + dilution); higher = more stable protein
MEASUREMENT_PARAMETERS: E. coli NCM3722 delta-lon; growth: N-lim chemostat; doubling time 6 h

SEQUENCE_RECORD | total protein half-life in vivo
MVLMIVSGRSGSGKSVALRALEDMGFYCVDNLPVVLLPDLARTLADREISAAVSIDVRNMPESPEIFEQAMSNLPDAFSPQLLFLDADRNTLIRRYSDTRRLHPLSSKNLSLESAIDKESDLLEPLRSRADLIVDTSEMSVHELAEMLRTRLLGKRERELTMVFESFGFKHGIPIDADYVFDVRFLPNPHWDPKLRPMTGLDKPVAAFLDRHTEVHNFIYQTRSYLELWLPMLETNNRSYLTVAIGCTGGKHRSVYIAEQLADYFRSRGKNVQSRHRTLEKRKP [P0A894] | 5.04 h
MFQQQKDWETRENAFAAFTMGPLTDFWRQRDEAEFTGVDDIPVRFVRFRAQHHDRVVVICPGRIESYVKYAELAYDLFHLGFDVLIIDHRGQGRSGRLLADPHLGHVNRFNDYVDDLAAFWQQEVQPGPWRKRYILAHSMGGAISTLFLQRHPGVCDAIALTAPMFGIVIRMPSFMARQILNWAEAHPRFRDGYAIGTGRWRALPFAINVLTHSRQRYRRNLRFYADDPTIRVGGPTYHWVRESILAGEQVLAGAGDDATPTLLLQAEEERVVDNRMHDRFCELRTAAGHPVEGGRPLVIKGAYHEILFEKDAMRSVALHAIVDFFNRHNSPSGNRSTEV | 4.93 h
